Tested on: Puccinia recondita f. sp. tritici
Assay: Test K: wheat leaf rust, preventive spray on wheat seedlings
Conditions: 40 ppm (*)
Marks after values point to notes of the source that are not given here.
quantityKind: Test K disease control rating

# molecule, endpointResult
records = [
    ("CC(C)Cn1c(-c2cc(C(F)(F)F)cc(C(F)(F)F)c2)c(Cl)nc(-n2cccn2)c1=O", "0* %"),
    ("CC(C)Cn1c(-c2ccccc2Cl)c(Cl)nc(-n2cccn2)c1=O", "100* %"),
    ("CCCC(C)n1c(-c2c(F)cccc2F)c(Cl)nc(-n2cccn2)c1=O (centres unmarked)", "100* %"),
    ("CC(C)Cn1c(-c2ccc(Cl)cc2F)c(Cl)nc(-n2cncn2)c1=O", "0* %"),
    ("CC(CS(C)(=O)=O)n1c(-c2c(F)cccc2F)c(Cl)nc(-n2cncn2)c1=O (centres unmarked)", "0* %"),
    ("CC(CF)n1c(-c2c(F)cccc2F)c(Cl)nc(-n2cccn2)c1=O (centres unmarked)", "100* %"),
    ("CCC(C)Cn1c(-c2c(F)cccc2F)c(Cl)nc(-n2ccc(C)n2)c1=O (centres unmarked)", "97* %"),
    ("CC(C)Cn1c(-c2ccccc2)c(Cl)nc(-n2cncn2)c1=O", "0* %"),
    ("CC(C)Cn1c(-c2cc(Br)c3c(c2)OCO3)c(Cl)nc(-n2cncn2)c1=O", "0* %"),
    ("CCC(C)Cn1c(-c2c(F)cccc2F)c(Cl)nc(NN2CCOCC2)c1=O (centres unmarked)", "0* %"),
    ("Cc1ccn(-c2nc(Br)c(-c3c(F)cccc3F)n(CC(C)C)c2=O)n1", "92* %"),
    ("Cc1cccc(-c2c(Cl)nc(-n3cncn3)c(=O)n2CC(C)C)c1", "0* %"),
    ("CC(C)Cn1c(C(C)c2ccccc2)c(Cl)nc(-n2cncn2)c1=O (centres unmarked)", "0* %"),
    ("CC1CCCCC1n1c(-c2c(F)cccc2F)c(Cl)nc(-n2cncn2)c1=O (centres unmarked)", "73* %"),
    ("CC[C@H](C)Cn1c(-c2c(F)cc(F)cc2F)c(Cl)nc(-n2ccc(C)n2)c1=O", "100* %"),
    ("CCc1ccccc1-c1c(Cl)nc(-n2cncn2)c(=O)n1CC(C)C", "0* %"),
    ("COc1cccc(-c2c(Cl)nc(-n3cccn3)c(=O)n2CC(C)C)c1", "0* %"),
    ("CC[C@H](C)Cn1c(-c2c(F)cc(F)cc2F)c(Cl)nc(N2CCC=N2)c1=O", "100* %"),
    ("O=c1c(-n2cccn2)nc(Cl)c(-c2c(F)cccc2F)n1Cc1ccc(Cl)cc1", "89* %"),
    ("CC(C)Cn1c(-c2ccoc2)c(Cl)nc(-n2cncn2)c1=O", "0* %"),
    ("Cc1cccc(-c2c(Cl)nc(-n3cccn3)c(=O)n2CC(C)C)c1", "0* %"),
    ("CCCCn1c(-c2c(F)cc(F)cc2F)c(Cl)nc(-n2ccc(C)n2)c1=O", "99* %"),
    ("CC(C)Cn1c(-c2cccnc2Cl)c(Cl)nc(-n2cncn2)c1=O", "0* %"),
    ("CC(C)Cn1c(-c2ccc(Cl)s2)c(Cl)nc(-n2cncn2)c1=O", "0* %"),
    ("CC(C)Cn1c(-c2ccc(OC(F)(F)F)cc2)c(Cl)nc(-n2cncn2)c1=O", "0* %"),
    ("CCC(C)Cn1c(-c2c(F)cccc2F)c(Cl)nc(-n2cnc(C#N)c2C#N)c1=O (centres unmarked)", "0* %"),
    ("CC(C)Cn1c(Cc2ccccc2)c(Cl)nc(-n2cncn2)c1=O", "0* %"),
    ("CCCc1nccn1-c1nc(Cl)c(-c2c(F)cccc2F)n(CC(C)CC)c1=O (centres unmarked)", "68* %"),
    ("CC1CCCCC1n1c(-c2c(F)cccc2F)c(Cl)nc(C#N)c1=O (centres unmarked)", "0* %"),
    ("CC1CCCCC1n1c(-c2c(F)cccc2F)c(Cl)nc(-n2cccn2)c1=O (centres unmarked)", "94* %"),
    ("O=c1c(-n2cccn2)nc(Cl)c(-c2c(F)cccc2F)n1CCCl", "100* %"),
    ("CCC(C)Cn1c(-c2ccc(F)cc2Cl)c(Cl)nc(-n2cncn2)c1=O (centres unmarked)", "100* %"),
    ("CS(=O)(=O)CCn1c(-c2c(F)cccc2F)c(Cl)nc(-n2cccn2)c1=O", "0* %"),
    ("CC(CCl)n1c(-c2c(F)cccc2F)c(Cl)nc(-n2cncn2)c1=O (centres unmarked)", "69* %"),
    ("CC(C)Cn1c(-c2ccc(Cl)s2)c(Cl)nc(-n2cccn2)c1=O", "55* %"),
]

----------
System: Rhizoctonia oryzae
Experiment: Test G: turf brown patch, preventive spray on creeping bent grass seedlings
Conditions: 40 ppm (*)
Marks after values point to notes of the source that are not given here.

# compound, testedTarget, Test G disease control rating
data = [
    ("CSCCn1c(-c2c(F)cccc2F)c(Cl)nc(-n2cncn2)c1=O [compound 98]", "Rhizoctonia oryzae", "0* %"),
    ("CCC(C)Cn1c(-c2c(F)cccc2F)c(Cl)nc(-n2ccnc2C(C)C)c1=O (stereo not drawn) [compound 72]", "Rhizoctonia oryzae", "58* %"),
    ("O=c1c(-n2cccn2)nc(Cl)c(-c2c(F)cccc2F)n1Cc1ccco1 [compound 187]", "Rhizoctonia oryzae", "0* %"),
    ("CC(C)Cn1c(-c2ccccc2Br)c(Cl)nc(-n2cccn2)c1=O [compound 195]", "Rhizoctonia oryzae", "47* %"),
    ("CC(C)Cn1c(C(C)c2ccccc2)c(Cl)nc(-n2cncn2)c1=O (stereo not drawn) [compound 133]", "Rhizoctonia oryzae", "0* %"),
    ("CCC(C)Cn1c(-c2c(F)cccc2F)c(Cl)nc(NN2CCOCC2)c1=O (stereo not drawn) [compound 135]", "Rhizoctonia oryzae", "0* %"),
    ("CC(C)Cn1c(-c2cccnc2Cl)c(Cl)nc(-n2cncn2)c1=O [compound 236]", "Rhizoctonia oryzae", "0* %"),
    ("CC(CO)n1c(-c2c(F)cccc2F)c(Cl)nc(-n2cccn2)c1=O (stereo not drawn) [compound 213]", "Rhizoctonia oryzae", "0* %"),
    ("CCC(C)Cn1c(-c2ccc(F)cc2Cl)c(Cl)nc(N2CCC=N2)c1=O (stereo not drawn) [compound 216]", "Rhizoctonia oryzae", "0* %"),
    ("COC=C(C)n1c(-c2c(F)cccc2F)c(Cl)nc(-n2cncn2)c1=O [compound 212]", "Rhizoctonia oryzae", "0* %"),
    ("CC1CCCCC1n1c(-c2c(F)cccc2F)c(Cl)nc(-n2cncn2)c1=O (stereo not drawn) [compound 225]", "Rhizoctonia oryzae", "0* %"),
    ("CCC(C)Cn1c(-c2c(F)cccc2F)c(Cl)nc(-n2ccnn2)c1=O (stereo not drawn) [compound 60]", "Rhizoctonia oryzae", "0* %"),
    ("N#Cc1nc(Cl)c(-c2c(F)cccc2F)n(Cc2ccco2)c1=O [compound 189]", "Rhizoctonia oryzae", "0* %"),
    ("CC[C@H](C)Cn1c(-c2c(F)cc(F)cc2F)c(Cl)nc(N2CCC=N2)c1=O [compound 218]", "Rhizoctonia oryzae", "43* %"),
    ("CCC(CC)Cn1c(-c2c(F)cccc2F)c(Cl)nc(-n2cccn2)c1=O [compound 183]", "Rhizoctonia oryzae", "81* %"),
    ("CC(C)Cn1c(-c2ccccc2Cl)c(Cl)nc(-n2cccn2)c1=O [compound 193]", "Rhizoctonia oryzae", "33* %"),
    ("COC=C(C)n1c(-c2c(F)cccc2F)c(Cl)nc(-n2cccn2)c1=O [compound 211]", "Rhizoctonia oryzae", "0* %"),
    ("CC(C)Cn1c(-c2c(F)cccc2F)c(Cl)nc(-c2cccnc2)c1=O [compound 178]", "Rhizoctonia oryzae", "0* %"),
]

----------
Tested on: Erysiphe graminis f. sp. tritici
Assay: Test L: wheat powdery mildew, preventive spray on wheat seedlings
Conditions: 40 ppm (*)
Marks after values point to notes of the source that are not given here.
# Test L disease control rating annotations
quantityKind: Test L disease control rating

# molecule, endpointResult
records = [
    ("CCC(C)Cn1c(-c2c(F)cccc2F)c(Cl)nc(NN2CCOCC2)c1=O (stereo not drawn) [compound 135]", "0* %"),
    ("COc1cccc(-c2c(Cl)nc(-n3cccn3)c(=O)n2CC(C)C)c1 [compound 246]", "78* %"),
    ("CCCCn1c(-c2c(F)cc(F)cc2F)c(Cl)nc(-n2cncn2)c1=O [compound 229]", "88* %"),
    ("CC1CCCCC1n1c(-c2c(F)cccc2F)c(Cl)nc(-n2cncn2)c1=O (stereo not drawn) [compound 225]", "0* %"),
    ("CC[C@H](C)Cn1c(-c2c(F)cc(F)cc2F)c(Cl)nc(N2CCC=N2)c1=O [compound 218]", "100* %"),
    ("CCC(C)Cn1c(-c2ccc(F)cc2Cl)c(Cl)nc(N2CCC=N2)c1=O (stereo not drawn) [compound 216]", "94* %"),
    ("CC(C)Cn1c(-c2c(F)cccc2F)c(Cl)nc(-n2ccnn2)c1=O [compound 215]", "0* %"),
    ("CCCCn1c(-c2c(F)cc(F)cc2F)c(Cl)nc(N2CCC=N2)c1=O [compound 226]", "46* %"),
    ("CSCC(C)n1c(-c2c(F)cccc2F)c(Cl)nc(-n2cncn2)c1=O (stereo not drawn) [compound 199]", "0* %"),
    ("CCC(C)Cn1c(-c2ccc(F)cc2Cl)c(Cl)nc(N2CCC(=O)N2)c1=O (stereo not drawn) [compound 217]", "62* %"),
    ("CSCCn1c(-c2c(F)cccc2F)c(Cl)nc(-n2cncn2)c1=O [compound 98]", "0* %"),
    ("CSCCn1c(-c2c(F)cccc2F)c(Cl)nc(-n2cccn2)c1=O [compound 97]", "0* %"),
    ("CCC(C)Cn1c(-c2ccc(F)cc2Cl)c(Cl)nc(-n2nc(C)cc2C)c1=O (stereo not drawn) [compound 168]", "0* %"),
    ("N#Cc1nc(Cl)c(-c2c(F)cccc2F)n(Cc2ccco2)c1=O [compound 189]", "0* %"),
    ("Cc1ccn(-c2nc(Cl)c(-c3c(F)cccc3F)n(CC(C)C)c2=O)n1 [compound 241]", "93* %"),
    ("CC(CS(C)(=O)=O)n1c(-c2c(F)cccc2F)c(Cl)nc(-n2cncn2)c1=O (stereo not drawn) [compound 201]", "0* %"),
    ("CC(C)Cn1c(-c2c(Cl)ccc(Cl)c2Cl)c(Cl)nc(-n2cccn2)c1=O [compound 121]", "0* %"),
    ("COCC(C)n1c(-c2c(F)cccc2F)c(Cl)nc(-n2cncn2)c1=O (stereo not drawn) [compound 94]", "0* %"),
]
